test system: SKHEP1; test: Cancer cell growth inhibition, Sulforhodamine B; type: cell-based; conditions: Homo sapiens, SK-HEP1, 72 h, SKHEP1 (liver), Responder Cell Lines
pIC50: −log10 of the molar value.
readout: pIC50

Which pIC50 is reported for this compound? CC(C)(O)c1cc(-c2csc(-c3ccc(C(=O)N4CCC(O)CC4)cc3Cl)c2)ccn1 [Compound 1] > 5.00

----------
experiment: In vivo pharmacokinetics, oral; settings: mouse, plasma; oral, male C57 BL/6 mice; dose 10.00 mg/kg (Compound 1), 12.01 mg/kg (Compound 2)
readout: Cmax (ng/mL)
I only need the number, in ng/mL, no unit after it.

# compound, Cmax [ng/mL]
records = [
    ("CC(C)(O)c1cc(-c2csc(-c3ccc(C(=O)N4CCC(O)CC4)cc3Cl)c2)ccn1 [Compound 1]", 7840),
]

Now turn to the next compound.
Which Cmax is reported for this compound? CC(C)(CO)c1cc(-c2csc(-c3ccc(C(=O)N4CCC(O)CC4)cc3Cl)c2)ccn1 [Compound 2, reference compound] 2180

----------
system: MINO; assay: Cancer cell growth inhibition, Sulforhodamine B; format: cell-based; settings: Homo sapiens, 72 h, MINO (hematological), Responder Cell Lines
pIC50: −log10 of the molar value.
readout: pIC50

Which pIC50 is reported for this compound? "CC(C)(O)c1cc(-c2csc(-c3ccc(C(=O)N4CCC(O)CC4)cc3Cl)c2)ccn1" > 5.00

----------
Listing of entries alongside the reported MRT last.
experiment: In vivo pharmacokinetics, intravenous; conditions: mouse, plasma, male C57 BL/6 mice, dose 2.00 mg/kg (Compound 1), 2.43 mg/kg (Compound 2), read-out: MRT0-last
Entry format: amount then unit.

# compound, MRT last
measured = [
    ("CC(C)(O)c1cc(-c2csc(-c3ccc(C(=O)N4CCC(O)CC4)cc3Cl)c2)ccn1", "7.07 h"),
]

Now turn to the next compound.
Which MRT last is reported for this compound? CC(C)(CO)c1cc(-c2csc(-c3ccc(C(=O)N4CCC(O)CC4)cc3Cl)c2)ccn1 [Compound 2, reference compound] 2.56 h

----------
test: In vivo pharmacokinetics, oral; settings: mouse, plasma; oral, male C57 BL/6 mice; dose 10.00 mg/kg (Compound 1), 12.01 mg/kg (Compound 2)
Listing of entries alongside the reported Tmax.
I only need the number, in min, no unit after it.

# compound, readout, result number
records = [
    ("CC(C)(O)c1cc(-c2csc(-c3ccc(C(=O)N4CCC(O)CC4)cc3Cl)c2)ccn1", "Tmax", 30),
]

Which Tmax is reported for this compound? CC(C)(CO)c1cc(-c2csc(-c3ccc(C(=O)N4CCC(O)CC4)cc3Cl)c2)ccn1 [Compound 2, reference compound] 15

----------
Listing of entries alongside the reported half-life.
assay: In vivo pharmacokinetics, oral; conditions: mouse, plasma; oral, male C57 BL/6 mice; dose 10.00 mg/kg (Compound 1), 12.01 mg/kg (Compound 2)
I only need the number, in min, no unit after it.

# molecule, readout, result number
data = [
    ("CC(C)(O)c1cc(-c2csc(-c3ccc(C(=O)N4CCC(O)CC4)cc3Cl)c2)ccn1", "half-life", 371),
]

Now turn to the next molecule.
Which half-life is reported for this molecule? CC(C)(CO)c1cc(-c2csc(-c3ccc(C(=O)N4CCC(O)CC4)cc3Cl)c2)ccn1 [Compound 2, reference compound] 568
